- Test system: U2OS
- Assay: Multiplex assay against U2OS
- Type: toxicity, cell-based
- Condition info: human, 48 h, 10 µM, compound concentration 10 uM, replicate 2
Readout label: Population Pyknosed Nuclei (%)

>>> result_number("COc1cc2nccc(Oc3ccc(NC(=O)Nc4cc(C)on4)c(Cl)c3)c2cc1OC.O")
18
>>> result_number("CNc1nc(NCc2ccc(NS(C)(=O)=O)cc2Cl)cc(-c2ccccn2)n1")
27
>>> result_number("CN(C)CC#Cc1ccc(OCCCc2sc(N3CCc4cccc(C(=O)Nc5nc6ccccc6s5)c4C3)nc2C(=O)O)c(F)c1")
29
>>> result_number("CNCc1ccccc1-c1csc([C@H](C)Nc2nc(C)nc3cc(OC)c(OC)cc23)c1")
37
>>> result_number("NC(=O)Nc1cc(-c2cccc(F)c2)sc1C(=O)N[C@H]1CCCNC1")
38

----------
- System: Fibroblast
- Assay: Multiplex assay against human fibroblast
- Assay type: toxicity, cell-based
- Condition info: 12 h, 1 µM, compound concentration 1 uM, replicate 1
Readout label: Population Apoptotic (%)

>>> result_number("CN1CCC[C@@H]1CCO[C@](C)(c1ccccc1)c1ccc(Cl)cc1.O=C(O)/C=C/C(=O)O [CLEMASTINE FUMARATE]")
61
>>> result_number("C[C@@H](NCCCc1cccc(C(F)(F)F)c1)c1cccc2ccccc12.Cl [CINACALCET HYDROCHLORIDE]")
59
>>> result_number("CCN(CC)CCCCNc1ncc2cc(-c3cc(OC)cc(OC)c3)c(NC(=O)NC(C)(C)C)nc2n1")
61
>>> result_number("CN(C)CC#Cc1ccc(OCCCc2sc(N3CCc4cccc(C(=O)Nc5nc6ccccc6s5)c4C3)nc2C(=O)O)c(F)c1")
74
>>> result_number("CC(C)(O)CNc1ncc(-c2ccnc(Nc3ccnc(Cl)c3)n2)c(CC2CC2)n1")
59
>>> result_number("CN(C)C(=O)N[C@H]1CC[C@H](CCN2CCN(c3cccc(Cl)c3Cl)CC2)CC1.Cl [CARIPRAZINE HYDROCHLORIDE]")
65
>>> result_number("CN1CCN(CCOc2cc(OC3CCOCC3)c3c(Nc4c(Cl)ccc5c4OCO5)ncnc3c2)CC1")
59
>>> result_number("Cc1nc(-c2ccc(-c3ccc(C(=O)N4CCc5cc6c(cc54)C4(CCN(C)CC4)CO6)cc3)c(C)c2)no1")
66
>>> result_number("CC[C@H](C)C(=O)O[C@H]1C[C@@H](C)C=C2C=C[C@H](C)[C@H](CC[C@@H]3C[C@@H](O)CC(=O)O3)[C@H]21")
63

----------
- System: HEK-293T
- Assay: Incucyte cell viability with HEK293T; further: filed as whole numbers so only -1 and 0 and 1 occur
- Type: toxicity, cell-based
- Condition info: human, 6 h, 10 µM, compound concentration 10 uM, replicate number 1, timepoint 6 hours
Readout label: Growth Rate

>>> result_number("CCOCCn1cc(C(=O)Nc2ccc(-n3nc(-c4cccnc4)cc3C(F)(F)F)cn2)ccc1=O")
0
>>> result_number("Cl.N#Cc1ccc2[nH]cc(CCCCN3CCN(c4ccc5oc(C(N)=O)cc5c4)CC3)c2c1 [VILAZODONE HYDROCHLORIDE]")
0
>>> result_number("CC(C)S(=O)(=O)c1ccc2nccc(Nc3ccc4scnc4c3)c2c1")
0
>>> result_number("CN1CCN(CCOc2cc(OC3CCOCC3)c3c(Nc4c(Cl)ccc5c4OCO5)ncnc3c2)CC1")
0
>>> result_number("O=C(NCc1ncc(C(F)(F)F)cc1Cl)c1ccc2c(c1)C1(CCS(=O)(=O)CC1)[C@H](C1CC1)N2S(=O)(=O)c1ccc(F)cc1")
1
>>> result_number("CN(C)S(=O)(=O)c1ccc(NC(=S)N2CCC(C(O)(c3ccccc3)c3ccccc3)CC2)cc1")
0
>>> result_number("Br.Br.N=C(N)SCCc1c[nH]cn1")
1
